# tested.system: human farnesyl pyrophosphate synthase (FPPS) (Homo sapiens, UniProt P14324)
# run.description: FPPS inhibition in vitro
# experimental.conditions: recombinant human FPPS; after pre-incubation
endpoint: pIC50
Answers are plain numbers, as −log10 of the molar value.

q: Which pIC50 reading was recorded for the molecule O=P(O)(O)C(Cc1c[nH]c2ccncc12)P(=O)(O)O [5-azaindol-3-yl-ethyl-bisphosphonic acid] ?
a: 8.18

====

# tested.system: human farnesyl pyrophosphate synthase (FPPS) (Homo sapiens)
# Sequence (P14324 67-419 limits assumed): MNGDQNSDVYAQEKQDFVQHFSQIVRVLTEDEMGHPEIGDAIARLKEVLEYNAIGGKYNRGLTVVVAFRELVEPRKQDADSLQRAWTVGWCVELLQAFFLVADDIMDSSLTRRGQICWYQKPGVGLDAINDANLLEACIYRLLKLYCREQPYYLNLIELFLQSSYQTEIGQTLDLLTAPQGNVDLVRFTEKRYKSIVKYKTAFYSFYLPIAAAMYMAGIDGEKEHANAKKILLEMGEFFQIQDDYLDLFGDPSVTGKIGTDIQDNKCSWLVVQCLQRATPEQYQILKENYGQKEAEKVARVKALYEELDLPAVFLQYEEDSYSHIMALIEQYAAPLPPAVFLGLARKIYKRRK
# run.description: FPPS inhibition in vitro
# experimental.conditions: recombinant human FPPS; final inhibition constant
endpoint: Ki (pM)
One number for each entry, in pM.

q: Which Ki reading was recorded for the compound O=P(O)(O)C(Cc1c[nH]c2ccncc12)P(=O)(O)O ?
a: 600
